Assay: Selectivity index, ratio of CC50 for BHK-21 cells to EC50 for Chikungunya virus 0611aTw
Assay type: toxicity
Conditions: hamster, read-out: Ratio CC50/EC50
Observation Type: selectivity ratio
No unit in the answer, please; the number alone is enough.

Param item = CC(=O)Oc1ccccc1C(=O)Nc1ncc([N+](=O)[O-])s1 [NITAZOXANIDE] ; retrieve measured selectivity ratio.
12.8

----------
System: Chikungunya virus
Assay: Antiviral activity against Chikungunya virus 899 assessed as inhibition of virus-induced cytopathogenic effect measured on day 5 post infection by MTS/PMS based microscopic analysis
Format: functional, organism-based
Settings: Chikungunya virus, 899, 120 h
Observation Type: pEC50
Friendly reminder that pEC50 comes from taking -log10 of the concentration in mol/L.

Item CC(=O)O[C@@]12C[C@@H](C)[C@@]3(O)[C@@H](C=C(CO)C[C@]4(O)C(=O)C(C)=C[C@@H]34)[C@@H]1C2(C)C has what recorded pEC50?
5.10

----------
Assay: Cytotoxicity against human MRC5 cells assessed as reduction in cell viability after 48 hrs by neutral red staining-based microscopic analysis
Observation Type: CC50 at 48 h (µM)
Note: unit µM is implicit; provide only the numeric part.

Requested read-out: CC50 at 48 h. Entry: CCOC(=O)c1c(CSc2ccccc2)n(C)c2cc(Br)c(O)c(CN(C)C)c12
376

----------
Assay: Cytotoxicity against human U2OS cells assessed as reduction in cell viability after 16 hrs by CCK-8 assay
Assay type: cell-based
Observation Type: CC50 at 16 h (µM)
The answer is to be given in µM; state only the numeric part.

Given the entry CC(=O)Oc1ccccc1C(=O)Nc1ncc([N+](=O)[O-])s1 [NITAZOXANIDE] , report its measured CC50 at 16 h.
25

----------
Give measured pEC50 for each item. Keep answers brief.
Test system: Chikungunya virus
Experiment: Antiviral activity against Chikungunya virus 899 infected in African green monkey Vero cells by MTS assay
Type: functional, organism-based
Settings: Chikungunya virus, 899, Vero
pEC50: −log10 of the molar value.

Reported pEC50, compound O=c1ccnc(SCc2cc(=O)oc3cc(O)ccc23)[nH]1 : ____
< 3.48

# query: pEC50 of entry O=c1ccnc(SCc2cc(=O)oc3cc(OCc4ccccc4)ccc23)[nH]1
< 3.59

Please give the measured pEC50 for this compound: Cc1ccc(COc2ccc3c(CSc4nc5ccccc5c(=O)[nH]4)cc(=O)oc3c2)cc1
< 5.66

Give its pEC50 value. Item: O=C1CCN=C(SCc2cc(=O)oc3cc(OS(=O)(=O)c4ccc([N+](=O)[O-])cc4)ccc23)N1
< 3.69

Value lookup for pEC50; key = Cc1ccc(COc2ccc3c(CSc4ncc(C)c(=O)[nH]4)cc(=O)oc3c2)cc1
< 4.32

GET /values?readout=pEC50&item= Cc1ccc2nc(SCc3cc(=O)oc4cc(OS(=O)(=O)c5ccc([N+](=O)[O-])cc5)ccc34)[nH]c(=O)c2c1
< 3.70

----------
Tested on: Chikungunya virus
Assay: Antiviral activity against Chikungunya virus 899 infected in African green monkey Vero cells by MTS assay
Assay type: functional, organism-based
Conditions: Chikungunya virus, 899, Vero
Observation Type: EC50

Return reported EC50; argument: Cc1cnc(SCc2cc(=O)oc3cc(OCc4ccccc4)ccc23)[nH]c1=O
> 246 µM

State the recorded EC50 for this entry: Cc1cnc(SCc2cc(=O)oc3cc(O)ccc23)[nH]c1=O
> 316 µM

I am curious: what EC50 value has been reported for O=c1cc(CSc2nc3ccccc3c(=O)[nH]2)c2ccc(OCc3ccccc3)cc2o1 ?
> 45.2 µM

----------
Assay: Selectivity index, ratio of CC50 for African green monkey Vero cells to EC50 for Chikungunya virus 899
Format: toxicity
Conditions: read-out: Ratio CC50/EC50
What selectivity ratio was measured for each of the following?
Please give only the number in your answer, with no unit.

For the compound Cc1cnc(SCc2cc(=O)oc3cc(OCc4ccc(F)cc4)ccc23)[nH]c1=O , what selectivity ratio is on record?
2.3

Param item = O=c1cc(CSc2nc3ccccc3c(=O)[nH]2)c2ccc(OS(=O)(=O)c3ccccc3)cc2o1 ; retrieve measured selectivity ratio.
9.3

Report selectivity ratio for Cc1ccc(S(=O)(=O)Oc2ccc3c(CSC4=NCCC(=O)N4)cc(=O)oc3c2)cc1 please.
2.6

So what's the measured selectivity ratio for this one? Cc1ccc(S(=O)(=O)Oc2ccc3c(CSc4nc5ccccc5c(=O)[nH]4)cc(=O)oc3c2)cc1
11.5
